The origin of these recorded values is ChEMBL document CHEMBL4251649.

# procedure.summary: Tmax in CD-1 mouse at 10 mg/kg, po
# Format: ADME, organism-based
# protocol.conditions: in vivo

[
  {
    "given.smiles": "CN(C)CCCCOC(=O)Nc1ccc(Cn2nc(-c3cccc(C(F)(F)F)c3)c3ccccc3c2=O)cc1",
    "Tmax (h)": 8
  }
]

---

# Test system: dengue virus type 2
# procedure.summary: Antiviral activity against DENV2 D2Y98P infected in human HuH7 cells assessed as inhibition of viral RNA replication incubated for 48 hrs by qRT-PCR method
# Assay type: functional, organism-based
# protocol.conditions: Huh-7, 48 h
pIC50: −log10 of the molar value.

[
  {
    "given.smiles": "CN(C)CCCCOC(=O)Nc1ccc(Cn2nc(-c3cccc(C(F)(F)F)c3)c3ccccc3c2=O)cc1",
    "measurement.target": "dengue virus type 2",
    "pIC50": 6.89
  },
  {
    "given.smiles": "CN(C)CCCCOC(=O)Nc1ccc(Cn2nc(-c3ccccc3F)c3ccccc3c2=O)cc1",
    "measurement.target": "dengue virus type 2",
    "pIC50": 5.88
  },
  {
    "given.smiles": "CN(C)CCCCOC(=O)Nc1ccc(Cn2nc(-c3cccc(C#N)c3)c3ccccc3c2=O)cc1",
    "measurement.target": "dengue virus type 2",
    "pIC50": 5.76
  },
  {
    "given.smiles": "CN(C)CCCCOC(=O)Nc1ccc(Cn2nc(-c3ccc(F)cc3)c3ccccc3c2=O)cc1",
    "measurement.target": "dengue virus type 2",
    "pIC50": 6.21
  }
]
